test: amyloid nucleation score (Sup35N fusion, yeast selection) (log enrichment); library NNK1; higher = more nucleation; inactive = no reads after selection;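 also: zero at mode of non-aggregating sequences after 7 days selection at 30°C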
test readout: amyloid nucleation score

substance	test readout	observed value
GVMGYFVC	amyloid nucleation score	-0.405
WNFLFSCLMLGSSWMACDWQ	amyloid nucleation score	-0.305
AKEVLYFR	amyloid nucleation score	0.505
NGTFVLDVRIRSRRSERPLG	amyloid nucleation score	4.09
HNMHFSPWIKCNSVYEFSGR	amyloid nucleation score	1.56
LCNPQYM	amyloid nucleation score	1.38
HYQMLDAISRSSVYVLSKSR	amyloid nucleation score	-0.239
VDGLHLNSYYEPVSMMSIVV	amyloid nucleation score	-0.336
HTLTPAHPTNGVVT	amyloid nucleation score	-0.871
FRELVDERLRRASQFHWFHF	amyloid nucleation score	0.557
GLVLTIWHLRTAEERIVYRA	amyloid nucleation score	1.58
CTVMHELCCRWFELFRRSVR	amyloid nucleation score	1.45
SLRCQFTSLLSMVCGCSLYG	amyloid nucleation score	0.807
WAYVAALRGYCYVGGRYLYT	amyloid nucleation score	-0.91
LSSAGYQFMFLSSFLGWEVN	amyloid nucleation score	-0.492
TDSCYHCNLYMYHSS	amyloid nucleation score	0.723
CPLRIIQLMCTNRGLMGRLG	amyloid nucleation score	-0.071
